Documented Activity across a set of compounds
- TESTED_TARGET: ATP-dependent translocase ABCB1 (Homo sapiens, UniProt P08183)
- Sequence (P08183 whole entry): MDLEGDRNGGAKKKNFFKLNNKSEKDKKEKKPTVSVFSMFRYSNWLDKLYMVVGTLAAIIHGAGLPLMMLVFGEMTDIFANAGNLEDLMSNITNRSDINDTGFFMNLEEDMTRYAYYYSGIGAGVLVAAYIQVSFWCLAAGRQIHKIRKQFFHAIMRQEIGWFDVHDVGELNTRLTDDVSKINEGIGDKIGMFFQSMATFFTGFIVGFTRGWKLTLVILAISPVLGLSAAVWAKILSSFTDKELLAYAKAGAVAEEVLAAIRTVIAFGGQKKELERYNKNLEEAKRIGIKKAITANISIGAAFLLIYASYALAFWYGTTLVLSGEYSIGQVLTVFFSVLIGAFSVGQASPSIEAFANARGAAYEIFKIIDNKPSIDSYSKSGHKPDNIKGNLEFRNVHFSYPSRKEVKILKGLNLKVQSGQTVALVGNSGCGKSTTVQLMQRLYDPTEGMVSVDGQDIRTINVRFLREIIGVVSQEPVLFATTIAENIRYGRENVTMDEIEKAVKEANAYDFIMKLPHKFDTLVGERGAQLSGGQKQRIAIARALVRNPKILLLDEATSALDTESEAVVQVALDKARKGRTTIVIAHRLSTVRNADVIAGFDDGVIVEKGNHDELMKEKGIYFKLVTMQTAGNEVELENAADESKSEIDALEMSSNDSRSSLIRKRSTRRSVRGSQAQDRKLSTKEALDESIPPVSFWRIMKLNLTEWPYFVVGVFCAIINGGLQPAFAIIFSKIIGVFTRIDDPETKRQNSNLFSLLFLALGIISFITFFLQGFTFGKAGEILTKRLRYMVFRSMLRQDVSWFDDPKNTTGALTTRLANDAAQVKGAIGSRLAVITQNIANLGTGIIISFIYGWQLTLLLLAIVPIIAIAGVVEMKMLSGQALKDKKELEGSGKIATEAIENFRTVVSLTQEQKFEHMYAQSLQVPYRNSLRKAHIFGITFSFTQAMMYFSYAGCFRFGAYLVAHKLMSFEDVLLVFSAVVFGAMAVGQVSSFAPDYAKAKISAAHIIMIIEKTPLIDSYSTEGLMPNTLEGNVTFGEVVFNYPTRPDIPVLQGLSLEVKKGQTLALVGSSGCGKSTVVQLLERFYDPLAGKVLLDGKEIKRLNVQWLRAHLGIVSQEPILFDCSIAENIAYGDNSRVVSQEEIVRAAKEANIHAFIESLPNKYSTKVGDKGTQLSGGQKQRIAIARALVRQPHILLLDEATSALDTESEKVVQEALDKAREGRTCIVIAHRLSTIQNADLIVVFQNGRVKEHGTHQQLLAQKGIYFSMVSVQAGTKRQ
- ASSAY_NAME: TP_TRANSPORTER: inhibition of Rhodamine 123 efflux in Caco-2 cells
- Type: functional, cell-based
- Set-up: concentration or dose not given beside the values
The reply should contain only the number, in %.

Item Cc1ncc2n1-c1ccc(Cl)cc1C(c1ccccc1F)=NC2 ; assay system ATP-dependent translocase ABCB1 (Homo sapiens, UniProt P08183); Activity reported as 12

###

- TESTED_TARGET: ATP-dependent translocase ABCB1 (Mus musculus, UniProt P06795)
- Sequence (P06795 whole entry): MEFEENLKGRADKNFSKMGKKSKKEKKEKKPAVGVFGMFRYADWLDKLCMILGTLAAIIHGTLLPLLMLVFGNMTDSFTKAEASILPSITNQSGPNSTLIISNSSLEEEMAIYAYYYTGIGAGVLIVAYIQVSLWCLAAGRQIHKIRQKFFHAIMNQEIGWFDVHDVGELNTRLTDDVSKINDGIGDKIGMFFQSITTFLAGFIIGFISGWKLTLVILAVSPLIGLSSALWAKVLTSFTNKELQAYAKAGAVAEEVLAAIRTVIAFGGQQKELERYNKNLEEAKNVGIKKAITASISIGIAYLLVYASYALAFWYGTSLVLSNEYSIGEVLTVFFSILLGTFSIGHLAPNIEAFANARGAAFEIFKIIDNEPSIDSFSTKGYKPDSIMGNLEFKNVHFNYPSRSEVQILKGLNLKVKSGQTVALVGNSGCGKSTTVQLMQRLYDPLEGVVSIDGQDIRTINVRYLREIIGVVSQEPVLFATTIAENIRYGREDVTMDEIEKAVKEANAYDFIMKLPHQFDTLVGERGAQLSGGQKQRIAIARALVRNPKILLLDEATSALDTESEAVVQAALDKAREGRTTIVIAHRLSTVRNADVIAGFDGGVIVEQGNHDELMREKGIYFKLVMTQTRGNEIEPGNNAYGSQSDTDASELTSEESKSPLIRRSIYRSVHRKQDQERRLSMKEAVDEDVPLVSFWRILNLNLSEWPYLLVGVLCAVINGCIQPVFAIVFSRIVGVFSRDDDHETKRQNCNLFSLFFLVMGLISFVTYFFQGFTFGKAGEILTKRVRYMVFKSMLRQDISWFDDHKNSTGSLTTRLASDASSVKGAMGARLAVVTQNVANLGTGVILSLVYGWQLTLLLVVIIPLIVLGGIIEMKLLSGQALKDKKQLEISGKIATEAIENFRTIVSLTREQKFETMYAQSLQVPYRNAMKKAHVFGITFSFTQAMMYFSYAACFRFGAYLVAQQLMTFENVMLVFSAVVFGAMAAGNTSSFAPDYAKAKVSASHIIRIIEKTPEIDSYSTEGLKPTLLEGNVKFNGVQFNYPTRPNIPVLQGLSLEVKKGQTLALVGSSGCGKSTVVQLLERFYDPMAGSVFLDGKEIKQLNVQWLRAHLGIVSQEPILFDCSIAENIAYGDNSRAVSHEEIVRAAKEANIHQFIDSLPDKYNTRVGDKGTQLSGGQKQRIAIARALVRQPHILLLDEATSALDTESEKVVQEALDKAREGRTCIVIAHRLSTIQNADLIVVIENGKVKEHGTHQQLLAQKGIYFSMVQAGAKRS
- ASSAY_NAME: Inhibition of P-glycoprotein, mouse L-mdr1b expressed in LLC-PK1 epithelial cells using calcein-AM polarisation assay
- Format: functional, cell-based
EXPERIMENTAL_ENDPOINT: IC50

Item CC1(C)SSC(C)(C)[C@@H](NC(=O)[C@@H](N)Cc2ccc(O)cc2)C(=O)NCC(=O)N[C@@H](Cc2ccccc2)C(=O)N[C@H]1C(=O)O ; assay system ATP-dependent translocase ABCB1 (Mus musculus, UniProt P06795); IC50 reported as > 50 µM

Item COc1cc([C@@H]2c3cc4c(cc3[C@@H](O[C@@H]3O[C@@H]5CO[C@@H](C)O[C@H]5[C@H](O)[C@H]3O)[C@H]3COC(=O)[C@H]23)OCO4)cc(OC)c1O [ETOPOSIDE] ; assay system ATP-dependent translocase ABCB1 (Mus musculus, UniProt P06795); IC50 reported as > 50 µM

Item COc1cc2c(c(OC)c1OC)-c1ccc(OC)c(=O)cc1[C@@H](NC(C)=O)CC2 ; assay system ATP-dependent translocase ABCB1 (Mus musculus, UniProt P06795); IC50 reported as > 50 µM

# evaluate next
Item CC(C)(C)NC(=O)[C@@H]1C[C@@H]2CCCC[C@@H]2CN1C[C@@H](O)[C@H](Cc1ccccc1)NC(=O)[C@H](CC(N)=O)NC(=O)c1ccc2ccccc2n1 ; assay system ATP-dependent translocase ABCB1 (Mus musculus, UniProt P06795); IC50 reported as > 50 µM

###

Documented IC50 across a set of compounds
- TESTED_TARGET: ATP-dependent translocase ABCB1 (Mus musculus)
- ASSAY_NAME: TP_TRANSPORTER: inhibition of Calcein-AM efflux in Mdr1a-expressing LLC-PK1 cells
- Format: functional, cell-based
The reply should contain only the number, in µM.

Solved entries (count: 2):
According to the records, this compound CCC(C)n1ncn(-c2ccc(N3CCN(c4ccc(OCC5COC(Cn6cncn6)(c6ccc(Cl)cc6Cl)O5)cc4)CC3)cc2)c1=O (stereo unspecified) [ITRACONAZOLE] displays IC50 of 0.2

According to the records, this compound COCC(=O)O[C@]1(CCN(C)CCCc2nc3ccccc3[nH]2)CCc2cc(F)ccc2[C@@H]1C(C)C [MIBEFRADIL] displays IC50 of 7.4

New cases:
According to the records, this compound Clc1ccc(COC(Cn2ccnc2)c2ccc(Cl)cc2Cl)c(Cl)c1 (stereo unspecified) [MICONAZOLE] displays IC50 of 7.8

###

- TESTED_TARGET: ATP-dependent translocase ABCB1 (Mus musculus)
- ASSAY_NAME: Inhibition of P-glycoprotein, mouse L-mdr1a expressed in LLC-PK1 epithelial cells using calcein-AM polarisation assay
- Assay type: functional, cell-based
pIC50: −log10 of the molar value.
EXPERIMENTAL_ENDPOINT: pIC50

Item CC[C@]1(O)C[C@@H]2CN(CCc3c([nH]c4ccccc34)[C@@](C(=O)OC)(c3cc4c(cc3OC)N(C)[C@H]3[C@@](O)(C(=O)OC)[C@H](OC(C)=O)[C@]5(CC)C=CCN6CC[C@]43[C@@H]65)C2)C1 [VINBLASTINE] ; assay system ATP-dependent translocase ABCB1 (Mus musculus); pIC50 reported as < 4.30

Item CC[C@H]1OC(=O)[C@H](C)[C@@H](O[C@H]2C[C@@](C)(OC)[C@@H](O)[C@H](C)O2)[C@H](C)[C@@H](O[C@@H]2O[C@H](C)C[C@H](N(C)C)[C@H]2O)[C@](C)(O)C[C@@H](C)C(=O)[C@H](C)[C@@H](O)[C@]1(C)O [ERYTHROMYCIN] ; assay system ATP-dependent translocase ABCB1 (Mus musculus); pIC50 reported as < 4.30

# evaluate next
Item CN/C(=C\[N+](=O)[O-])NCCSCc1ccc(CN(C)C)o1 [RANITIDINE] ; assay system ATP-dependent translocase ABCB1 (Mus musculus); pIC50 reported as < 4.30

###

- ASSAY_NAME: Partition coefficient (logP)
- Format: physicochemical
- STATED_CONDITIONS: octanol/water; read-out: logP
EXPERIMENTAL_ENDPOINT: logP
Give a plain numeric answer without units written out.

According to the records, this compound CN/C(=C\[N+](=O)[O-])NCCSCc1ccc(CN(C)C)o1 [RANITIDINE] displays logP of 0.6

According to the records, this compound C[C@@H]1C[C@H]2[C@@H]3CCC4=CC(=O)C=C[C@]4(C)[C@@]3(F)[C@@H](O)C[C@]2(C)[C@@]1(O)C(=O)CO [DEXAMETHASONE] displays logP of 1.7

According to the records, this compound COC(=O)C1=C(C)NC(C)=C(C(=O)OCCN(C)Cc2ccccc2)C1c1cccc([N+](=O)[O-])c1 (centres undefined) [NICARDIPINE] displays logP of 5.5

# evaluate next
According to the records, this compound Clc1ccc(COC(Cn2ccnc2)c2ccc(Cl)cc2Cl)c(Cl)c1 (centres undefined) [MICONAZOLE] displays logP of 5.8

###

Documented Activity across a set of compounds
- TESTED_TARGET: ATP-dependent translocase ABCB1 (Homo sapiens, UniProt P08183)
- ASSAY_NAME: TP_TRANSPORTER: inhibition of Rhodamine 123 efflux in Caco-2 cells
- Assay type: functional, cell-based
- Design: concentration or dose not given beside the values
The reply should contain only the number, in %.

Item COCC(=O)O[C@]1(CCN(C)CCCc2nc3ccccc3[nH]2)CCc2cc(F)ccc2[C@@H]1C(C)C ; assay system ATP-dependent translocase ABCB1 (Homo sapiens, UniProt P08183); Activity reported as 60

New cases:
Item COc1ccc(CCN2CCC(Nc3nc4ccccc4n3Cc3ccc(F)cc3)CC2)cc1 ; assay system ATP-dependent translocase ABCB1 (Homo sapiens, UniProt P08183); Activity reported as 39

Item CC[C@]1(O)C[C@@H]2CN(CCc3c([nH]c4ccccc34)[C@@](C(=O)OC)(c3cc4c(cc3OC)N(C)[C@H]3[C@@](O)(C(=O)OC)[C@H](OC(C)=O)[C@]5(CC)C=CCN6CC[C@]43[C@@H]65)C2)C1 ; assay system ATP-dependent translocase ABCB1 (Homo sapiens, UniProt P08183); Activity reported as 75

Item Cc1c(O)cccc1C(=O)N[C@@H](CSc1ccccc1)[C@H](O)CN1C[C@H]2CCCC[C@H]2C[C@H]1C(=O)NC(C)(C)C ; assay system ATP-dependent translocase ABCB1 (Homo sapiens, UniProt P08183); Activity reported as 30

###

- TESTED_TARGET: ATP-dependent translocase ABCB1 (Mus musculus)
- ASSAY_NAME: TP_TRANSPORTER: inhibition of Calcein-AM efflux in Mdr1a-expressing LLC-PK1 cells
- Type: functional, cell-based
pIC50: −log10 of the molar value.
EXPERIMENTAL_ENDPOINT: pIC50

Solved entries (count: 2):
According to the records, this molecule C[C@@H]1C[C@H]2[C@@H]3CCC4=CC(=O)C=C[C@]4(C)[C@@]3(F)[C@@H](O)C[C@]2(C)[C@@]1(O)C(=O)CO displays pIC50 of < 4.30

According to the records, this molecule CC[C@]1(O)C[C@@H]2CN(CCc3c([nH]c4ccccc34)[C@@](C(=O)OC)(c3cc4c(cc3OC)N(C)[C@H]3[C@@](O)(C(=O)OC)[C@H](OC(C)=O)[C@]5(CC)C=CCN6CC[C@]43[C@@H]65)C2)C1 displays pIC50 of < 4.30

New cases:
According to the records, this molecule COc1cc2c(c(OC)c1OC)-c1ccc(OC)c(=O)cc1[C@@H](NC(C)=O)CC2 displays pIC50 of < 4.30
